test system: OVCAR-8 ovarian; test: NCI tumour cell line growth inhibition, 48 h
Where a SMILES comes first, the peptide text is derived from it.
Parameter measured: TGI

Here's what some known entries look like.
Compound: Oc1ccc2ccccc2c1C=NCCCN=Cc1c(O)ccc2ccccc12
Test value: > 100 µM

Compound: C/C(CN1C(=O)c2ccccc2C1=O)=N\NS(=O)(=O)c1cccc([N+](=O)[O-])c1
Test value: > 100 µM

Compound: O=C(c1ccccc1)c1ccc(C(c2c(O)c3ccccc3oc2=O)c2c(O)c3ccccc3oc2=O)cc1
Test value: > 75.1 µM

Compound: CCC1(C)C=Cc2c(cc(OC)c3c(=O)c4ccccc4n(C)c23)O1 (stereo not drawn)
Test value: > 10 µM

Compound: CC1NC(=O)CNC(=O)CNC(=O)C(Cc2ccc(O)cc2)NC(=O)C(C(C)C)NC(=O)C(C)NC1=O (stereo not drawn) (cyclo(GGAAVY); configuration not given here)
Test value: > 100 µM

Q. Endpoint output: TGI of `CSc1ccc2c(cc1=O)[C@@H](NC(C)=O)CCc1cc(O)c(O)c(O)c1-2` . Value?
A. 42.3 µM

Q. Item under review: O=C(O)c1ccc(NC(=O)C2C(=O)C(=O)N(c3ccc(C(=O)O)cc3)C2=O)cc1 (stereo not drawn) . Reported TGI?
A. > 100 µM

Q. Given the compound CCN1CC2=C(N=c3s/c(=C\c4ccc(Cl)cc4)c(=O)n3C2c2ccc(Cl)cc2)/C(=C/c2ccc(Cl)cc2)C1 (stereo not drawn) , what is its reported TGI?
A. > 100 µM

====

system: OVCAR-4 ovarian; test: NCI tumour cell line growth inhibition, 48 h
Parameter measured: TGI

Compound: COC(=O)C1(C)C=C(Nc2ccccc2)C(=O)N1c1ccccc1 (centres undefined)
Study system: OVCAR-4 ovarian
Test value: > 100 µM

Compound: NC(=S)/N=C/c1c(O)c2ccccc2oc1=O
Study system: OVCAR-4 ovarian
Test value: > 100 µM

Compound: COc1c(CC=C(C)C)c(O)c(C(CC(C)C)c2c(O)c(C(C)=O)c(O)c3c2OC(C(C)(C)O)C3)c(O)c1C(C)=O (centres undefined)
Study system: OVCAR-4 ovarian
Test value: > 12.5 µM

Q. What does the data say about its TGI? Entry: `COc1ccc(C(=O)Cn2c(C(=O)c3ccc(Cl)cc3)nc3ccccc32)cc1`
A. > 100 µM

Q. Consider the compound shown here: `C=C1C(=O)O[C@H]2[C@H]1CC/C(COC(=O)C(=O)c1c[nH]c3ccccc13)=C\CC[C@@]1(C)O[C@@H]21` What is its recorded TGI?
A. 25.9 µM

Q. Quick one: TGI of COc1ccc2c(c1)C(N)CC2=O (centres undefined) ?
A. > 100 µM

Q. Given `CC1=C(C)C(=O)c2c(c(C(=O)c3ccccc3)c3nc4ccccc4n3c2C)C1=O` , state its recorded TGI.
A. > 100 µM

Q. Entry under review: C=CC1(C)CCC(C(C)C(=O)C(C=C(C)C)OC(C)=O)C12C(=O)Oc1ccccc1C2=O (centres undefined) . Reported TGI?
A. > 100 µM

Q. Reported TGI, compound `O=C(/C=C/c1ccco1)c1ccc(Nc2nc(Nc3ccc(F)cc3)nc(Nc3ccc(Cl)cc3)n2)cc1` : ____
A. > 88.3 µM

====

system: SK-MEL-28 melanoma; test: NCI tumour cell line growth inhibition, 48 h
Parameter measured: GI50

Use the examples below as a reference point.
Compound: N#CC1=C(N)Oc2cc3c(cc2C1c1cccs1)OCO3 (stereo not given)
Study system: SK-MEL-28 melanoma
GI50: 1.12 µM

Compound: CCc1ccc(-c2nnc(COc3ccc(-c4nc5ccc(C)cc5[nH]4)cc3OC)o2)cc1
Study system: SK-MEL-28 melanoma
GI50: 2.36 µM

Compound: COc1cccc(-c2nn(-c3ccccc3)cc2-c2ccnc(NCCNS(=O)(=O)c3ccc(Cl)cc3)c2)c1
Study system: SK-MEL-28 melanoma
GI50: 7.99 µM

Q. State the recorded GI50 for this entry: `O=[N+]([O-])c1ccc(N2CCN(Cc3ccccc3)CC2)c2c1no[n+]2[O-]`
A. 3.56 µM

Q. What does the data say about its GI50? Entry: `Cc1ccc(Nc2nc(NCCO)c3ccccc3n2)cc1C`
A. 6.47 µM

Q. Quick check: GI50 of `COc1ccc(CN2C(=O)/C(=C\c3cc(OC)c(OC)c(OC)c3)c3cc(OC)ccc32)cc1` ?
A. 1.72 µM

Q. Field request: GI50 | item: `CS(=O)(=O)c1ccc(Oc2cc(F)cc(C#N)c2)c2c1[C@H](O)[C@H](F)[C@@H]2F`
A. > 100 µM

Q. Form field: reported GI50 of COc1ccc(-c2ccc(C3CC(c4ccc(O)cc4)=NN3)o2)c([N+](=O)[O-])c1 (stereo not given)
A. 45.8 µM

Q. Need GI50, item `CCC1=C(C)/C(=C/c2[nH]c(C)c(C(=O)CCCCC(=O)OC)c2C)N=C1c1ccc[nH]1`
A. 7.25 µM

Q. Give the measured GI50 of `C=C1C(=O)O[C@H]2[C@H]1CC/C(COC(=O)C(=O)c1c[nH]c3ccccc13)=C\CC[C@@]1(C)O[C@@H]21` .
A. 2.02 µM

====

Entries and their GI50 values follow.
system: SR leukemia; experiment: NCI tumour cell line growth inhibition, 48 h

Item smiles: Oc1c(CN2CCC(N3CCOCC3)CC2)cc(Cc2cc(CN3CCC(N4CCOCC4)CC3)c(O)c3ncccc23)c2cccnc12
Study system: SR leukemia
Test value: 593 nM
--
Item smiles: CCCCCCCCCCCCN1C(C)=CS/C1=C\C=C\c1scc(C)[n+]1CCCCCCCCCCCC
Study system: SR leukemia
Test value: 1120 nM

Continue with the next compound.
Q. Form field: GI50 recorded for `CC/C=C\C[C@H](O)C/C=C1/C(=O)C=C[C@@H]1C/C=C\CCCC(=O)NC(C)C` with SR leukemia (enter value)
A. 2430 nM

====

Parameter TGI: see the listing below.
tested on: SF-268 CNS; experiment: NCI tumour cell line growth inhibition, 48 h
Where a SMILES comes first, the peptide text is derived from it.

Compound: CC(C)(C)OC(=O)[N+](=N)C(=O)C1CCC(=O)N1C(=O)OCc1ccccc1 (centres undefined)
Study system: SF-268 CNS
Parameter measured: TGI
Test value: > 100 µM
//
Compound: CC1NC(=O)CNC(=O)CNC(=O)C(Cc2ccc(O)cc2)NC(=O)C(C(C)C)NC(=O)C(C)NC1=O (centres undefined) (cyclo(GGAAVY); configuration not given here)
Study system: SF-268 CNS
Parameter measured: TGI
Test value: > 100 µM
//
Compound: N#CC1=C(N)Oc2cc3c(cc2C1c1cccs1)OCO3 (centres undefined)
Study system: SF-268 CNS
Parameter measured: TGI
Test value: > 85.6 µM
//
Compound: CCN1CC2=C(N=c3s/c(=C\c4ccc(Cl)cc4)c(=O)n3C2c2ccc(Cl)cc2)/C(=C/c2ccc(Cl)cc2)C1 (centres undefined)
Study system: SF-268 CNS
Parameter measured: TGI
Test value: 80.6 µM
//
Compound: CCOP(=O)(OCC)C(NC(=O)OCC(Cl)(Cl)Cl)n1nnc(C(=O)OC)c1C(=O)OC (centres undefined)
Study system: SF-268 CNS
Parameter measured: TGI
Test value: > 100 µM

Q. Requested read-out: TGI. Entry: O=P(c1ccccc1)(c1ccccc1)C1CC=C(c2ccccc2)C2(CCCC2)C1 (centres undefined)
A. > 100 µM

Q. Name the recorded TGI for `COc1ccc(CN2C(=O)/C(=C\c3cc(OC)c(OC)c(OC)c3)c3cc(OC)ccc32)cc1` .
A. 7.05 µM

Q. Quick one: TGI for CC(C)=CCC[C@]1(C)CC[C@]2(C)C3CCC(=C(C)C)[C@@H](CCCO)[C@]3(C)CC[C@@]2(C)C1 (some centres undefined) ?
A. > 100 µM

Q. I'd like to know its TGI. The compound in question is CC1C(c2ccc(F)cc2)c2cc3c(cc2OC1N1CCCC1)OCO3 (centres undefined)
A. > 100 µM

====

system: HOP-62 NSCLC; assay: NCI tumour cell line growth inhibition, 48 h
Parameter measured: TGI

Item smiles: O=C(c1ccccc1)c1ccc(C(c2c(O)c3ccccc3oc2=O)c2c(O)c3ccccc3oc2=O)cc1
Study system: HOP-62 NSCLC
TGI: > 57.3 µM
//
Item smiles: Cc1ccc(-c2c(C#N)c(-c3ccc(Cl)cc3)c(C#N)c(=O)n2NS(=O)(=O)c2ccccc2)cc1
Study system: HOP-62 NSCLC
TGI: > 100 µM

Q. Record request: TGI value, item `Oc1cccc2c1NC1=C(CCC/C1=C\c1ccccc1)C2`
A. > 100 µM

Q. Entry under review: `CN1CCN(Cc2ccc(-c3cc4ncnc(Nc5ccc(OCc6cccc(F)c6)c(Cl)c5)c4s3)o2)CC1` . Reported TGI?
A. 9.12 µM

Q. Which TGI is reported for this molecule? `CCCCCCCCCOC(=O)c1cnc(Cl)cn1`
A. 44.9 µM
